- measured.target: Luciferin 4-monooxygenase (Photinus pyralis)
- test.name: qHTS profiling assay for firefly luciferase inhibitor/activator using purifed enzyme and Km concentrations of substrates (counterscreen for miR-21 project); further: nearly all actives have a fitted effect of over 55% in size
- measurement.conditions: purified FLuc, luminescence inhibition; series mostly up to 57.5 µM
The campaign covered roughly 360,000 compounds. About 25,000 (6.9%) were called active. Another 9% or so got no clear call; they are omitted. The call rests on the fitted dose curve; in most records, active means well fitted inhibition curve with a large enough effect; inconclusive means small, poorly fitted or top-dose-only effect; inactive means flat fitted curve, though single readings scatter. Shown is part of a subset that was picked to be rich in actives.
Allowed answers: true (active), false (inactive)

Input: For Nc1nonc1C(=O)NCCc1ccccc1 , what call appears in the results of this test?
Output: false

Input: For COc1ccc(C(=O)C2CCCN(S(=O)(=O)c3cccc(C)c3)C2)c(C)c1 (stereo unspecified) , what call appears in the results of this test?
Output: false

Input: For C[C@H](NC(=O)c1[nH]cnc1C(=O)Nc1nccs1)c1ccccc1 , what call appears in the results of this test?
Output: false

Input: For COc1ccccc1OCCNc1cc(N2CCOCC2)ccc1[N+](=O)[O-] , what call appears in the results of this test?
Output: true

Input: For Cc1ccccc1CSc1nnc(-c2ccccc2)c(=O)[nH]1 , what call appears in the results of this test?
Output: true

Input: For Cc1cc(OC(=O)c2ccccc2)c([N+](=O)[O-])c(=O)[nH]1 , what call appears in the results of this test?
Output: false

Input: For Cc1ccc(F)cc1NC(=O)CCSc1nc(-c2ccco2)cc(C(F)(F)F)n1 , what call appears in the results of this test?
Output: false

Input: For CC(C)Cc1cc(C(=O)Nc2cc(Br)ccc2O)no1 , what call appears in the results of this test?
Output: true

Input: For COc1cc(Cl)ccc1Nc1ncc(C(=O)N2CCN(c3ccccc3OC)CC2)c2ccccc12 , what call appears in the results of this test?
Output: false

Input: For O=C(Nc1ccccc1Br)c1cc(CN2CCCC2)on1 , what call appears in the results of this test?
Output: false

Input: For Cc1ccc(CSc2nc(-c3ccccc3)c(C#N)c(=O)[nH]2)cc1 , what call appears in the results of this test?
Output: false
